# TARGET ENTITY: Homeobox protein Hox-A13 (Mus musculus) (UniProt Q62424)
# Sequence (Q62424 whole entry, looked up): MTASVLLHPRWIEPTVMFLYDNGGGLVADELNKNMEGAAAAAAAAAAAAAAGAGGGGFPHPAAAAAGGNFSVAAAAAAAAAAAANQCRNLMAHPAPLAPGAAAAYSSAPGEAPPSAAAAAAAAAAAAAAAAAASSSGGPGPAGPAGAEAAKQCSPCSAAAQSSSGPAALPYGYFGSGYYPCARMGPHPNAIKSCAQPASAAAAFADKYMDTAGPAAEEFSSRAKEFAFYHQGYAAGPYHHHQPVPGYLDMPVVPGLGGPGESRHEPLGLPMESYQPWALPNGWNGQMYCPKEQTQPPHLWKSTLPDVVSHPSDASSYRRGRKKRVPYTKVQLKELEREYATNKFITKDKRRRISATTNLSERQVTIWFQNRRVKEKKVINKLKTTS
# METHOD NOTES: inhibitors of HoxA13-DNA binding, primary screen, biochemical, fluorescence polarization, labeled oligonucleotide (AID 1185)
# EXPERIMENTAL CONTEXT: 15 min, higher = more signal, called active from +8 up or from −8 down
Use TRUE when the recorded z-score is no lower than -3; use FALSE when it is lower.

COMPOUND | TARGET ENTITY | CLASS LABEL
COc1cccc(C[C@H]2C[C@@H](CO[Si](C(C)C)(C(C)C)C(C)C)N3C(=O)[C@@]4(C(C)=O)O[C@@]23[C@@H]2C(=O)N(C)C(=O)[C@@H]24)c1 | Homeobox protein Hox-A13 (Mus musculus) (UniProt Q62424) | FALSE
CN(C)C(=O)[C@@]1(CCS(=O)(=O)c2ccccc2)N=C(c2ccc(OCCCO)cc2)O[C@H]1c1ccccc1N=[N+]=[N-] | Homeobox protein Hox-A13 (Mus musculus) (UniProt Q62424) | FALSE
CCCCC(=C=CC[C@@H](O)c1cccc(OCCO)c1)C[C@@H](O)COCc1ccccc1 | Homeobox protein Hox-A13 (Mus musculus) (UniProt Q62424) | FALSE
COCCOC(=O)N1C(=O)[C@@]2(c3cc(C#CCCO)ccc31)[C@H](c1ccccc1OCCO)N1[C@H](c3ccccc3)[C@H](c3ccccc3)OC(=O)[C@H]1[C@@H]2C(=O)N1CCc2cc(OC)c(OC)cc2C1 | Homeobox protein Hox-A13 (Mus musculus) (UniProt Q62424) | TRUE
COc1ccc(NN2C(C(O)c3ccc(OC)cc3)C=CC3C(=O)N(C4CCCCC4)C(=O)C32)cc1 (stereo unspecified) | Homeobox protein Hox-A13 (Mus musculus) (UniProt Q62424) | FALSE
C[C@@H](OCc1ccccc1)C1NC(=O)[C@@]23C(=O)N[C@@H](Cc4ccccc4)C2[C@H](C)[C@@]2(C)O[C@H]2C3/C=C/C/C=C\CNC(=O)[C@H](Cc2ccccc2)NC1=O (stereo partly specified) | Homeobox protein Hox-A13 (Mus musculus) (UniProt Q62424) | FALSE

----------
A collection of compounds and their measured z-score
# METHOD NOTES: basal S. cerevisiae growth modulation, no modifier, primary screen, OD600, strain BY4716, 24 h, basal condition (AID 1173)
# EXPERIMENTAL CONTEXT: OD600, 24 h, higher = more signal, called active from +8 up or from −8 down

SMILES REPRESENTATION | z-score
[N-]=[N+]=NCc1ccccc1C[C@]1(C(=O)N2CCOCC2)N=C(c2ccc(OCCCO)cc2)O[C@H]1c1ccccc1CN=[N+]=[N-] | 1.06
Cc1ccc(S[C@]2(C(=O)NCCN3CCOCC3)CC(=O)N(C3CCCCC3)[C@@H]2c2ccc(CO)cc2I)cc1 | -0.0113
COc1ccccc1CN1C(=O)c2ccccc2[C@](Cc2ccccc2I)(C(=O)NCCCN(C)C)[C@@H]1c1ccc(CO)cc1 | -10.3
CCCCC=C[C@@H](NC(=O)c1ccc(C(F)(F)F)cc1)c1ccccc1 | -0.118
COC(=O)[C@@]1(Cc2ccc(F)cc2)[C@H]2c3cc(C(=O)N4CCCC4)n(CCO)c3C[C@H]2CN1C(=O)c1ccccc1 | 0.894
CCOC(=O)C1=CC[C@@H](c2ccccc2Cl)N(S(=O)(=O)c2ccc(C)cc2)[C@H]1c1cccc(OC)c1 | 1.46
CCOC(=O)C[C@H]1[C@H](OC(=O)c2cc3ccccc3oc2=O)[C@@H](NC(=O)C2CCCCC2)c2cc(OCCCO)ccc2N1C(=O)Cc1ccc(OC)cc1 | 0.0323
C=CC[C@@]1(C(=O)O)N=C(c2ccc(OCCCO)cc2)O[C@@H]1c1ccccc1CN=[N+]=[N-] | -2.58

----------
A collection of compounds and their measured z-score
# METHOD NOTES: splicing luciferase reporter signal modulators, primary screen, spliceosome inhibition project, cell-based, HEK293, splice +/- reporter (AID 1101);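 also: HEK293 cells carrying a splicing-competent luciferase reporter gene; test concentration not given here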
# EXPERIMENTAL CONTEXT: luminescence, 24 h, higher = more signal, called active from +8 up or from −8 down
RECORDED ENDPOINT: z-score

COMPOUND | ASSAY RESULT
C=CCN1C(=O)[C@]2(O[C@H](CCn3cc([C@H](O)c4ccccc4)nn3)[C@@H]([Si](C)(C)c3ccc(OC)cc3)[C@@H]2C)c2cc(N3C(=O)c4cccc5cccc3c45)ccc21 | -1.18
NC(=O)NCC#Cc1ccc2c(c1)[C@]1(C(=O)N2)[C@H](C(=O)N2CCCCCCC2)[C@H]2C(=O)O[C@H](c3ccccc3)[C@H](c3ccccc3)N2[C@@H]1c1ccc(O)cc1 | -0.15
C=CCC(OC(C)=O)[C@@H]1[C@@H](N(Cc2cccc3ccccc23)C(=O)c2ccc(C)cc2)c2cc(OCCCO)ccc2N1C(=O)c1ccc2ccccc2n1 (stereo partly specified) | -1.47
COCCOC(=O)N1C(=O)[C@@]2(c3ccccc31)[C@H](C(=O)N1CCCCCCC1)[C@H]1C(=O)O[C@H](c3ccccc3)[C@H](c3ccccc3)N1[C@@H]2c1ccc(O)cc1 | -0.216
CCCC[C@H]1OB(O)C[C@H]2C1=C(C)C[C@H]1C(=O)C=CC(=O)[C@H]12 | 1.04
CCCC=C(CCC)[C@@H](NC(=O)c1ccccc1)c1ccc(C(=O)OC)cc1 | -1.98

----------
# METHOD NOTES: inhibitors of hydroxyurea-induced Chk1 phosphorylation, primary screen, imaging, HeLa, phospho-Chk1 nuclear intensity (AID 1187); also: test concentration not given here
# EXPERIMENTAL CONTEXT: hydroxyurea-induced phospho-Chk1 immunofluorescence imaging, higher = more signal
A collection of molecules and their measured z-score
RECORDED ENDPOINT: z-score

MOLECULE | ASSAY RESULT
CCOC(=O)C[C@H]1[C@H](OC(=O)c2cc3ccccc3oc2=O)[C@@H](NC(=O)C2CCCCC2)c2cc(OCCCO)ccc2N1C(=O)Cc1ccc(OC)cc1 | -0.306
C=CCNC(=O)[C@H]1[C@@H]2C(=O)O[C@@H](c3ccccc3)[C@@H](c3ccccc3)N2[C@@H](c2ccc(O)cc2)[C@]12C(=O)Nc1ccc(C#CC3=CCCCC3)cc12 | -0.217
COCCCNC(=O)[C@@]1(Sc2ccc(C)cc2)CC(=O)N(C2CCCCC2)[C@@H]1c1ccc(CO)cc1I | 0.268
CC(C)=CCN(C(=O)C#Cc1ccccc1)[C@H](CO)c1ccccc1 | -0.6
C=CCC(OC(C)=O)[C@@H]1[C@@H](N(Cc2ccc(-c3cccc(C(F)(F)F)c3)o2)C(=O)c2cccc3ccccc23)c2cc(OCCCO)ccc2N1C(=O)c1ccc2ccccc2n1 (stereo partly specified) | 0.228
CCOC(=O)C1=CCC(c2cc3ccccc3[nH]2)N(S(=O)(=O)c2ccccc2[N+](=O)[O-])C1 (stereo unspecified) | -0.518
COC(=O)[C@@]1(Cc2ccccc2CN=[N+]=[N-])COC(c2ccc(OCCCO)cc2)=N1 | 0.0494
O=C1c2ccccc2[C@@]2(Cc3ccccc3N(Cc3ccccc3)C2=O)[C@H](c2ccc(CO)cc2)N1Cc1ccccc1 | 0.435
[N-]=[N+]=NCc1ccccc1C[C@]1(C(=O)O)COC(c2ccc(OCCCO)cc2)=N1 | -0.313
CC(C)C(=C=CC[C@@H](O)c1cccc(OCCO)c1)CCO | 0.247
Cc1ccc(F)cc1S(=O)(=O)N[C@@H]1CCN(Cc2ccc3[nH]ccc3c2)C1 | -0.075
COc1cccc(OC)c1C(=O)O[C@H]1[C@@H]2OC(=O)[C@H](Cc3cccc(Br)c3)C/C=C/C[C@@H](Cc3cccc(Br)c3)C(=O)O[C@H]2[C@@H](OC)O[C@@H]1CO | 0.0783
CCCC=C(CCC)[C@@H](NC(=O)c1ccco1)c1ccc(C(=O)OC)cc1 | -0.17
CC(C)C[C@@H]1NC(=O)[C@H]2C[C@@H](C(=O)NCCCCCCNC(=O)CS)[C@@H](c3ccc(O)cc3)N2C1=O | 0.716
CN1C(=O)[C@]2(CCS(=O)(=O)c3ccccc3)N=C(c3ccc(OCCCO)cc3)O[C@@H]2c2ccccc21 | 0.271
CC1CC/C=C\[C@H]2OC34C=CCN(CCN5CCOCC5)C(=O)[C@H]3N(CCCCCCO)C(=O)[C@@H]4C2C(=O)O1 (stereo partly specified) | 0.519

----------
# METHOD NOTES: PSAC antagonists in infected red cells, primary screen, cell-based, P. falciparum Indochina, OD700, 2 h (AID 1155);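 also: lysis reports solute entry through the parasite surface anion channel PSAC; channel blockers reduce lysis of infected cells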
# EXPERIMENTAL CONTEXT: P. falciparum Indochina infected erythrocytes, osmotic lysis OD700; higher = more signal, called active from +8 up or from −8 down
A collection of compounds and their measured z-score

COMPOUND | z-score
CC(C)c1ccc(NN2C(C(O)C(C)C)C=CC3C(=O)N(c4ccccc4)C(=O)C32)cc1 (centres undefined) | 0.83
COc1ccc([Si](C)(C)[C@H]2[C@H](CCO)O[C@@]3(C(=O)N(Cc4ccccc4)c4ccc(N(C=O)c5ccccc5)cc43)[C@@H]2C)cc1 | 2.52
CCCCC(=C=CC[C@H](O)c1ccc(OCCO)cc1)C[C@H](O)c1ccccn1 | 2.3
CN(C)CCCC[C@@H]1NC(=O)[C@H]2C[C@@H](C(=O)O)[C@@H](c3cccc(OCCO)c3)N2C1=O | 0.945

Ref: PubChem BioAssay
